FYI, the data here is from patent US20240109962A1.

ASSAY_SYSTEM: T1, recombinant human LILRB2 protein (human, UniProt Q8N423 22-460, limits assumed)
T1 construct: also called recombinant LILRB2 protein
T1 sequence (Q8N423 22-460 limits assumed): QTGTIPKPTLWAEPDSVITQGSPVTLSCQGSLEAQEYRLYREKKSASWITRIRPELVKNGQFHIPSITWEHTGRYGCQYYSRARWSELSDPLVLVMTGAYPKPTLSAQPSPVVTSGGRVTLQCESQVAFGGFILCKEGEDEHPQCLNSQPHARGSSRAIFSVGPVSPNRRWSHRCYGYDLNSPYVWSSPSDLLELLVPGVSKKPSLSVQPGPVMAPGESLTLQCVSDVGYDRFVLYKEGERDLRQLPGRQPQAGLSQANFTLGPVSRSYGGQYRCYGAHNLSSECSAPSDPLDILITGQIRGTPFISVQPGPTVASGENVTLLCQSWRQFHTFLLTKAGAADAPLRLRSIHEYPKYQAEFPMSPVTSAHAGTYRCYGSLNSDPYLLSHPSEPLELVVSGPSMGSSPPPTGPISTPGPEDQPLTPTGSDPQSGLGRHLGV
MEASUREMENT_NOTES: ELISA, coated recombinant human LILRB2
Set-up: unit not given here
ENDPOINT: Bmax
Answer as a number with no unit attached.

Query: Fill in: Bmax of Antibody 2E1_GH6 (antibody, V domains shown) VH: EVQLVESGGGLVQPGGSLRLSCAVSGYSITSGYHWNWIRQAPGKGLEWVAYISYDGNNNYNPSLKNRFTISRDTSKNTFYLQMNSLRAEDTAVYYCAREESTMITTAWFAYWGQGTLVTVSS VL: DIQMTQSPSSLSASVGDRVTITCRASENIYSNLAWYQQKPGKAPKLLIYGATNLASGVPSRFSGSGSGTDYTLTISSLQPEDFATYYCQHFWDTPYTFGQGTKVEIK is ___
Reply: 1.26

Query: Give the measured Bmax of Antibody 2E1_FD3 (antibody, V domains shown) VH: EVQLVESGGGLVQPGGSLRLSCAVSGYSITSGYYWNWIRQAPGKGLEWVAYISYDGNANYNPSLKNRFTISRDTSKNTFYLQMNSLRAEDTAVYYCAREESTMITTAWFAYWGQGTLVTVSS VL: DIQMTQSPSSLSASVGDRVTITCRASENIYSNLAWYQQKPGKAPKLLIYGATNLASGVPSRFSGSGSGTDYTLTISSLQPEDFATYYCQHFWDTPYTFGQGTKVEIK .
Reply: 1.28

Query: Returns the measured Bmax for the input binder. Input: Antibody 2E1_GB8 (antibody, V domains shown) VH: EVQLVESGGGLVQPGGSLRLSCAVSGYSITSGYYWWWIRQAPGKGLEWVAYISYDGNNNYNPSLKNRFTISRDTSKNTFYLQMNSLRAEDTAVYYCAREESTMITTAWFAYWGQGTLVTVSS VL: DIQMTQSPSSLSASVGDRVTITCSASENIYSNLAWYQQKPGKAPKLLIYGATNLASGVPSRFSGSGSGTDYTLTISSLQPEDFATYYCQHFWDTPYTFGQGTKVEIK
Reply: 1.47
